Target: Cyclooxygenase (Rattus norvegicus, UniProt P35355+Q63921)
Sequence (P35355 whole entry): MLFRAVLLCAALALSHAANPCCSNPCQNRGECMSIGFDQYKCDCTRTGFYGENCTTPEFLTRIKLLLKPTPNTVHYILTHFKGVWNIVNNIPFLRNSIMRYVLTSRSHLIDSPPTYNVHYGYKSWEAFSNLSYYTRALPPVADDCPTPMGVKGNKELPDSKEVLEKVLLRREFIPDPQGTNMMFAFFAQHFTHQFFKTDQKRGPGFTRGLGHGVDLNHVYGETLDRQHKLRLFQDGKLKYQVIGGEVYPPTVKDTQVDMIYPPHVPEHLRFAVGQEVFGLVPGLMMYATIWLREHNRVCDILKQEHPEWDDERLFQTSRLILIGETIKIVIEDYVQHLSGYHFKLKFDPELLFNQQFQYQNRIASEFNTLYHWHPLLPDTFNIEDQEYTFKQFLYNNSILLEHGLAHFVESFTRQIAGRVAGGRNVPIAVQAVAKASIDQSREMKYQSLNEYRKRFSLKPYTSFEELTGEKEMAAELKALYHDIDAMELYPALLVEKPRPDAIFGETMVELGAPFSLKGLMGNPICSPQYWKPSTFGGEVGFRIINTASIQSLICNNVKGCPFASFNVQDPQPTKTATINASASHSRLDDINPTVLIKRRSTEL
Sequence (Q63921 whole entry): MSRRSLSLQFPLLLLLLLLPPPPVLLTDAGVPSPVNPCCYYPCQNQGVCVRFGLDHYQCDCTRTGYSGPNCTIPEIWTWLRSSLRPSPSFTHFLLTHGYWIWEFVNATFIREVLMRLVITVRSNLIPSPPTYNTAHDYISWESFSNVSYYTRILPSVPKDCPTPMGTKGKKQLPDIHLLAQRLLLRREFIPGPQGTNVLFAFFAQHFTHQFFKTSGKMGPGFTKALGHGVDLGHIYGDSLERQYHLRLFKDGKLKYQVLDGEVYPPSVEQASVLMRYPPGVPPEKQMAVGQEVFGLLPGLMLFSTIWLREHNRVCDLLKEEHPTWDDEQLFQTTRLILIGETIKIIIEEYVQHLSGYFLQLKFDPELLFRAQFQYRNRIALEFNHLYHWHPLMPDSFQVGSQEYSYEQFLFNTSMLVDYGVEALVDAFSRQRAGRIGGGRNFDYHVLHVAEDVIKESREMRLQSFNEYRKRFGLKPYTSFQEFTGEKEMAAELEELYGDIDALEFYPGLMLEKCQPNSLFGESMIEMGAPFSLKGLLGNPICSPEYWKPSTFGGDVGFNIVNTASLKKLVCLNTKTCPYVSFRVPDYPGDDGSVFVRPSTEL
Test: In vitro inhibitory activity against Cyclooxygenase was determined
Assay type: protein assay
Recorded endpoint: IC50 (µM)
Answers are plain numbers, in µM.

{"Smiles text": "FC(F)(F)c1cccc(Nc2ccccc2-c2n[nH]c(=S)s2)c1", "Assayed system": "Cyclooxygenase (Rattus norvegicus, UniProt P35355+Q63921)", "Measurement unit": "µM", "IC50": 0.85}
{"Smiles text": "Cc1ccc(Cl)c(Nc2ccccc2-c2nnc(S)s2)c1Cl", "Assayed system": "Cyclooxygenase (Rattus norvegicus, UniProt P35355+Q63921)", "Measurement unit": "µM", "IC50": 1.75}
{"Smiles text": "FC(F)(F)c1cccc(Nc2ccccc2-c2n[nH]c(=S)o2)c1", "Assayed system": "Cyclooxygenase (Rattus norvegicus, UniProt P35355+Q63921)", "Measurement unit": "µM", "IC50": 0.27}
{"Smiles text": "Cc1ccc(Cl)c(Nc2ccccc2-c2nnc(S)o2)c1Cl", "Assayed system": "Cyclooxygenase (Rattus norvegicus, UniProt P35355+Q63921)", "Measurement unit": "µM", "IC50": 0.7}

Okay, now this compound:
Task: Would you mind telling me what IC50 value was observed for `FC(F)(F)c1cccc(Nc2ncccc2-c2nnc(S)o2)c1` ?
Result: 0.19
